Recorded IC50 values for a group of compounds are listed next.
# ASSAY_EXPLANATION: small-molecule binders of antibody PG9, dose response, biochemical, TR-FRET, HIV-1 gp120 antibody (AID 651848)
# SETUP_CONDITIONS: TR-FRET PG9 antibody-gp120 binding inhibition
Some of the results follow. Calls of active or inactive are those of the source. Cut-off read from the data, not from the text of the source: active = IC50 below about 10 µM; inactive = the rest.
READOUT_LABEL: IC50

[[record]]
compound = "S=c1[nH]c2ccccc2c2ccccc12"
readout_label = "IC50"
reported_value = "44.6 µM (inactive)"

[[record]]
compound = "COC(=O)C1=C(C)N(Cc2ccccc2C(F)(F)F)C(=NCc2ccc(OC)cc2)NC1c1cccc(C(F)(F)F)c1 (stereo not given)"
readout_label = "IC50"
reported_value = "> 67 µM (inactive)"

[[record]]
compound = "Cc1cccc(Nc2nc3c(S(=O)(=O)c4ccccc4)nnn3c3ccccc23)c1C"
readout_label = "IC50"
reported_value = "> 67 µM (inactive)"

[[record]]
compound = "COc1ccc(-c2c(C)nn3c(N4CCC(C(=O)N5CCCCC5)CC4)cc(C)nc23)cc1OC"
readout_label = "IC50"
reported_value = "> 67 µM (inactive)"

[[record]]
compound = "O=C(Oc1ccccc1)Oc1ccc2c(c1)oc(=O)c1ccccc12"
readout_label = "IC50"
reported_value = "25.1 µM (inactive)"

